System: bloodstream trypomastigotes of T. b. brucei
Assay: Trypanocidal activity against T. brucei brucei bloodstream (MTS)
Format: cell-based, Trypanosoma brucei brucei
endpoint name: SI (HEK-293) = (IC50 HEK-293)/(IC50 T. brucei brucei)
Numbers only.

Below: 3 molecules and their reported SI (HEK-293) = (IC50 HEK-293)/(IC50 T. brucei brucei).
mol	assay target	experimental result
O=[N+]([O-])c1nccn1CCCCCCCCCCn1ccnc1[N+](=O)[O-]	bloodstream trypomastigotes of T. b. brucei	1.67
O=[N+]([O-])c1nccn1CCCCCCCCn1ccnc1[N+](=O)[O-]	bloodstream trypomastigotes of T. b. brucei	2.79
O=[N+]([O-])c1nccn1CCCCCCCCCCCCn1ccnc1[N+](=O)[O-]	bloodstream trypomastigotes of T. b. brucei	57.01

Field request: SI (HEK-293) = (IC50 HEK-293)/(IC50 T. brucei brucei) | item: `O=[N+]([O-])c1nccn1CCCCCCn1ccnc1[N+](=O)[O-]` 16.27

###

Test system: RAW-264.7 cells
Assay: Cytotoxicity against RAW-264.7 cells (MTT)
Type: cell-based
Conditions: Mus musculus, RAW264.7, 48 h; read-out: RAW-264.7 48 h IC50
pIC50: −log10 of the molar value.
endpoint name: pIC50

// known answers, use as guide
mol	pIC50
O=[N+]([O-])c1nccn1CCCCCn1ccnc1[N+](=O)[O-]	< 3.90
O=[N+]([O-])c1nccn1CCCCCCCCn1ccnc1[N+](=O)[O-]	4.14
O=[N+]([O-])c1nccn1CCCCCCCCCCn1ccnc1[N+](=O)[O-]	4.01
O=[N+]([O-])c1nccn1CCCCn1ccnc1[N+](=O)[O-]	< 3.90
O=[N+]([O-])c1nccn1CCCCCCn1ccnc1[N+](=O)[O-]	< 3.90

Shift focus to the following entry.
Suppose we examine the molecule `O=[N+]([O-])c1nccn1CCCCCCCCCCCCn1ccnc1[N+](=O)[O-]` ; what pIC50 value has been reported? < 3.90

###

Please go through the items and note down their IC50 at 120 h.
Test: Cytotoxicity against LLC-MK2 cells (MTT)
Format: cell-based
Conditions: rhesus monkey

Examples with answers:
compound	IC50 at 120 h
O=[N+]([O-])c1nccn1CCCCCCCCn1ccnc1[N+](=O)[O-]	> 100 µM
O=[N+]([O-])c1nccn1CCCCCCCCCCCCn1ccnc1[N+](=O)[O-]	52.4 µM
O=[N+]([O-])c1nccn1CCCCCCn1ccnc1[N+](=O)[O-]	> 200 µM
O=[N+]([O-])c1nccn1CCCCn1ccnc1[N+](=O)[O-]	> 200 µM
O=[N+]([O-])c1nccn1CCCCCCCCCCn1ccnc1[N+](=O)[O-]	> 100 µM

Please report IC50 at 120 h for every entry that follows.
1. O=[N+]([O-])c1nccn1CCCn1ccnc1[N+](=O)[O-]
2. O=[N+]([O-])c1nccn1CCCCCn1ccnc1[N+](=O)[O-]
3. O=[N+]([O-])c1ncc[nH]1 [Azomycin (3), 2-nitro-1H-imidazole, reference compound]

> 200 µM
> 200 µM
> 500 µM

Would you mind telling me what IC50 at 120 h value was observed for `O=[N+]([O-])c1nccn1CCn1ccnc1[N+](=O)[O-]` ? > 200 µM

###

System: bloodstream trypomastigotes of T. b. brucei
Assay: Trypanocidal activity against T. brucei brucei bloodstream (MTS)
Format: cell-based, Trypanosoma brucei brucei
Conditions: Trypanosoma brucei, 48 h; read-out: T. b. brucei 48 h IC50
Please respond with reported IC50 for every item in the list.
Numbers only, in µM.

See these solved cases before continuing.
compound	experimental result
O=[N+]([O-])c1nccn1CCCCCCn1ccnc1[N+](=O)[O-]	5.37
O=[N+]([O-])c1nccn1CCCCCCCCCCn1ccnc1[N+](=O)[O-]	21
CSc1ccc(OCc2ncc([N+](=O)[O-])n2C)cc1 [Fexinidazole, fexinidazole, reference compound]	1.2
O=[N+]([O-])c1nccn1CCCCCn1ccnc1[N+](=O)[O-]	10.1
O=[N+]([O-])c1nccn1CCCCCCCCCCCCn1ccnc1[N+](=O)[O-]	1.79
O=[N+]([O-])c1nccn1CCCCn1ccnc1[N+](=O)[O-]	24.9

// below: IC50 requested for another compound
Reported IC50, compound `O=[N+]([O-])c1nccn1CCCCCCCCn1ccnc1[N+](=O)[O-]` : ____ 7.98

###

Give IC50 for every item shown.
Test system: bloodstream trypomastigotes of T. b. brucei
Assay: Trypanocidal activity against T. brucei brucei bloodstream (MTS)
Assay type: cell-based, Trypanosoma brucei brucei
Conditions: Trypanosoma brucei, 48 h, read-out: T. b. brucei 48 h IC50
Give bare numbers, in µM.

mol	endpoint name	unit name	experimental result
O=[N+]([O-])c1nccn1CCn1ccnc1[N+](=O)[O-]	IC50	µM	21.4

Okay, next one:
Which IC50 is reported for this compound? `O=[N+]([O-])c1nccn1CCCn1ccnc1[N+](=O)[O-]` 16.4

###

Assay: Cytotoxicity against LLC-MK2 cells (MTT)
Assay type: cell-based
Conditions: rhesus monkey, LLC-MK2 cells
Procedure: Mammalian lineage cells were used to assess the cytotoxicity of the tested compounds. […] In a flat 96-well plate, a suspension of 1 × 10^4 LLC-MK2 cells (ATCC) in DMEM supplemented with 2% FBS was added. […] After 1.5 h of dark incubation at 37 °C to dissolve the crystals, the absorbance was measured at 570 nm using a plate reader.
endpoint name: IC50 at 120 h

What measured IC50 at 120 h goes with O=C(Cn1ccnc1[N+](=O)[O-])NCc1ccccc1 [Benznidazole, benznidazole, reference compound] ? > 200 µM

###

Tested on: bloodstream trypomastigotes of T. b. brucei
Assay: Trypanocidal activity against T. brucei brucei bloodstream (MTS)
Format: cell-based, Trypanosoma brucei brucei
endpoint name: SI (RAW-264.7) = (IC50 RAW-264.7)/(IC50 T. brucei brucei)

Reference set, count: 5
mol	experimental result
O=[N+]([O-])c1nccn1CCCCCn1ccnc1[N+](=O)[O-]	>12.42
O=[N+]([O-])c1nccn1CCn1ccnc1[N+](=O)[O-]	>5.83
O=[N+]([O-])c1nccn1CCCCCCCCCCCCn1ccnc1[N+](=O)[O-]	>69.83
O=[N+]([O-])c1nccn1CCCCCCCCCCn1ccnc1[N+](=O)[O-]	4.67
O=[N+]([O-])c1nccn1CCCCCCCCn1ccnc1[N+](=O)[O-]	8.98

Items follow; give SI (RAW-264.7) = (IC50 RAW-264.7)/(IC50 T. brucei brucei) for each.
1. O=[N+]([O-])c1nccn1CCCCn1ccnc1[N+](=O)[O-]
2. O=[N+]([O-])c1nccn1CCCCCCn1ccnc1[N+](=O)[O-]

>5.02
>23.27

###

Test system: bloodstream trypomastigotes of T. b. brucei
Test: Trypanocidal activity against T. brucei brucei bloodstream (MTS)
Assay type: cell-based, Trypanosoma brucei brucei
Experimental: In a transparent 96-well plate, the parasites were incubated for 48 h at a concentration of 5 × 10^4 parasites per well, for 24 h, a concentration of 10 × 10^5 parasites per well was used in Hirumi’s Modified Iscove’s (HMI-9) medium supplemented with 10% FBS and a final 100 μL/well volume. […] Once the plate was visibly stained–due to the soluble formazan salt produced by the action of viable parasites from the reduction of MTS–the absorbance was measured at 490 nm using a plate reader.
endpoint name: SI (HEK-293) = (IC50 HEK-293)/(IC50 T. brucei brucei)

mol	experimental result
O=[N+]([O-])c1nccn1CCn1ccnc1[N+](=O)[O-]	>5.83
O=[N+]([O-])c1nccn1CCCCCn1ccnc1[N+](=O)[O-]	>12.42

Consider the record given below.
Looking for the measured SI (HEK-293) = (IC50 HEK-293)/(IC50 T. brucei brucei) of `O=[N+]([O-])c1nccn1CCCCn1ccnc1[N+](=O)[O-]` , can you help? >5.02
